- Tested on: Hepatitis C virus
- RUN_DESCRIPTION: Antiviral activity against HCV assessed as inhibition of viral fusion and replication at attachment stage
- Format: functional, organism-based, Hepacivirus hominis
READOUT_KIND: pEC50
# pEC50 = -log10(concentration in molar units)

Dear colleague, please send me the reported pEC50 for COc1ccc2cc3[n+](cc2c1OC)CCc1cc2c(cc1-3)OCO2 when you can.
5.10

###

- RUN_DESCRIPTION: Inhibition of hepatitis C virus p7 ion channel
- Parameters: species or system Hepacivirus hominis
READOUT_KIND: pIC50
// returns pIC50 (minus log10 of molar concentration), number only

Supply recorded pIC50 for O=C1CCC(C23CC4CC(CC(C4)C2)C3)=NN1c1ccccc1 here.
6.28
